Recorded values, source patent US8722712B2.

The entries below are paired with their reported log10 of EC50.
Target: human S1P1 receptor (Homo sapiens, UniProt P21453)
Construct: expressed in transfected cells; membranes used
Sequence (P21453 whole entry): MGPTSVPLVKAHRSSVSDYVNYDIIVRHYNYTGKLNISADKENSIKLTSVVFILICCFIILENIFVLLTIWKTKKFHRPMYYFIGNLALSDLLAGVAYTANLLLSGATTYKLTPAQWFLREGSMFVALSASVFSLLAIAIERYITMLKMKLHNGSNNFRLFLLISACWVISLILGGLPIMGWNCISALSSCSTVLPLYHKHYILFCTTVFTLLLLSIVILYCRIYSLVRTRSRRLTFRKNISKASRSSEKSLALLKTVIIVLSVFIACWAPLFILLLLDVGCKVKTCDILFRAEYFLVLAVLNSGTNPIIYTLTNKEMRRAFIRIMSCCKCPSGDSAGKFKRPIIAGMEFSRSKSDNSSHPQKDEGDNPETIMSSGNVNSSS
Test: GTP γ35S binding assay for S1P1 activity
Type: biochemical
Conditions: membranes of cells stably expressing the S1P1 receptor, test compounds 0.08 to 5,000 nM
On a log10 scale: recorded EC50, unit nM.

{"givenSmiles": "O=P(O)(O)CCCNCc1ccc(-c2noc(CCCCc3ccccc3)n2)c(-c2ccco2)c1", "quantitativeReadout": 2.34}
{"givenSmiles": "CCc1cc(-c2noc(CCCCc3ccccc3)n2)ccc1CNCCCP(=O)(O)O", "quantitativeReadout": 1.90}
{"givenSmiles": "O=C(O)CCNCc1ccc(-c2noc(CCCCc3ccccc3)n2)cc1", "quantitativeReadout": 2.78}
{"givenSmiles": "O=P(O)(O)CCCNCc1ccc(-c2noc(CCCCc3ccccc3)n2)c(Br)c1", "quantitativeReadout": 1.23}

What value of log10 of EC50 has been recorded for this entry: O=P(O)(O)CCCNCc1ccc(-c2noc(CCCCc3ccccc3)n2)cc1
1.80

Same lookup for O=P(O)(O)CCCNCc1ccc(-c2noc(CCCCc3ccccc3)n2)c(F)c1 , please.
1.38
